TESTED ON: Cbl-b (Homo sapiens (Human))
Sequence (Q13191 40-426): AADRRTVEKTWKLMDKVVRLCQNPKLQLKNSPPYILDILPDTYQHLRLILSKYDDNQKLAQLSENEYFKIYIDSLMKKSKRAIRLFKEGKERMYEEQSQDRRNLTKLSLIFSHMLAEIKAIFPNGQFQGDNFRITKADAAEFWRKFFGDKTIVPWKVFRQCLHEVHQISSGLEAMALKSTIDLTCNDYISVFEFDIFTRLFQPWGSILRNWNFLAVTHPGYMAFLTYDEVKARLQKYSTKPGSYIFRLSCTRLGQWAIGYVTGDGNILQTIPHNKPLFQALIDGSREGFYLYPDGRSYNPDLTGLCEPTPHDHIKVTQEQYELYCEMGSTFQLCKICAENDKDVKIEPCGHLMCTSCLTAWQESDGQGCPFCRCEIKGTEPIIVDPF
PROTOCOL TEXT: Cbl-b LCK Ub TR-FRET assay (Cbl-b Lck HTRF)
Assay type: biochemical
RECORDED CONDITIONS: Cbl-b LCK Ub TR-FRET
READOUT KIND: log10 of IC50 (log10 of the value in nM)
Heads up: the numbers are on a log10 scale; they represent IC50 in nM.

# lookup: Cbl-b (Homo sapiens (Human)) log10 of IC50, key = CC(C)[C@H]1CN(C)CCN1Cc1cc2c(c(C(F)(F)F)c1)CN(c1cccc([C@H](c3nncn3C)C3COC3)c1)C2=O (single isomer, unassigned) [Compound 11]
3.71

# lookup: Cbl-b (Homo sapiens (Human)) log10 of IC50, key = COc1cc([C@@H](c2nncn2C)C2COC2)cc(N2Cc3c(cc(CNC4(C)CCC4)cc3C(F)(F)F)C2=O)c1 (single isomer, unassigned) [Compound 339]
0.75

# lookup: Cbl-b (Homo sapiens (Human)) log10 of IC50, key = C[C@@H](NC1(C)CCC1)c1cc(Cl)c2c(c1)C(=O)N(c1cccc([C@]3(c4nncn4C)C[C@H](F)C3)c1)C2 (single isomer, unassigned) [Compound 311]
0.60

# lookup: Cbl-b (Homo sapiens (Human)) log10 of IC50, key = Cn1cnnc1[C@]1(c2cccc(N3Cc4c(cc(CNC5(C)CCC5)cc4C(F)(F)F)C3=O)c2)C[C@H](C#N)C1 [Compound 25]
1.15

# lookup: Cbl-b (Homo sapiens (Human)) log10 of IC50, key = CC(C)[C@H]1CN(C)CCN1Cc1cc2c(c(C(F)(F)F)c1)CN(c1cccc(C3(c4nncn4C)CC4(COC4)C3)c1)C2=O [Compound 41]
1.32

# lookup: Cbl-b (Homo sapiens (Human)) log10 of IC50, key = Cn1cnnc1[C@@H](c1cc(F)cc(N2Cc3c(cc(CNC4(C)CCC4)cc3C(F)(F)F)C2=O)c1)C1COC1 (single isomer, unassigned) [Compound 152]
1.26
